system: L1210 leukemia ip in BDF1 mice, survival T/C; assay: NCI In Vivo Anticancer Drug Screen. Data for tumor model L1210 Leukemia (intraperitoneal) in B6D2F1 (BDF1) mice; conditions: endpoint: mean survival time; dose: 200.0 mg/kg/injection; schedule: Q04DX002 (ip); vehicle: Klucel (hydroxypropylcellulose) (HPC); higher = longer survival
Inconclusive results and toxic doses are left out.
In this section we review reported T/C values for a set of compounds.

[[record]]
compound = "CCCCCCCCN=[N+](C)[O-]"
metric = "T/C"
result = "93 % of control"

[[record]]
compound = "Cc1cccc(NC(=O)COc2ccc(C)cc2C)c1"
metric = "T/C"
result = "92 % of control"

[[record]]
compound = "O=Cc1cccc(OCc2cccc([N+](=O)[O-])c2)c1"
metric = "T/C"
result = "105 % of control"

[[record]]
compound = "CN(C)Cc1ccccc1COC(=O)/C=C/c1ccccc1"
metric = "T/C"
result = "97 % of control"

[[record]]
compound = "O=C(Oc1ccc(Cl)cc1Cl)c1ccc([N+](=O)[O-])cc1"
metric = "T/C"
result = "97 % of control"


QUERY: State the recorded T/C for this entry: CCCCCC(=O)N1CC(C)OC(C)C1 (configuration not stated)
RESULT: 97 % of control

QUERY: State the recorded T/C for this entry: Nc1nc(N)c(CCCOc2ccccc2)c(-c2ccccc2)n1
RESULT: 101 % of control
